// values below are reported MIC
# Test system: MRSA 43300
# Protocol Text: Antibacterial activity, NCCLS dilution method (Table 9)
# Format: cell-based, S. aureus
# Conditions Used: Staphylococcus aureus, MRSA, MRSA 43300; dilution method; labels marked a tested as a mixture of diastereomers; read-out: MRSA 43300 MIC
# Text: NCCLS standards for antimicrobial susceptibility testing using the dilution method were followed. See: Performance Standards for Antimicrobial Susceptibility Testing; Fourteenth Informational Supplement. NCCLS Document M100-S14 (ISBN 1-56238-516-X), 2004. NCCLS, 940 West Valley Road, Suite 1400, Wayne, Pa. 19087-1898 USA, 2004; Methods for Dilution Antimicrobial Susceptibility Tests for Bacteria that Grow Aerobically; Approved Standard—Sixth Edition. […]

Before answering, review these 2 worked examples.
Smiles String	Recorded Value
COC(=O)c1c(C)cc2c(c1O)[C@]1(O)C(=O)c3cc4c(c(O)c3C(=O)[C@]1(OC)[C@H](O)C2)C(=O)C=C(N[C@H]1O[C@@H](C)[C@H](OC)/C(=N/OCCN)[C@H]1OC)C4=O	0.12 to 0.25 µg/mL
CCOC(=O)c1c(C)cc2c(c1O)[C@]1(O)C(=O)c3cc4c(c(O)c3C(=O)[C@]1(OC)[C@H](O)C2)C(=O)C=C(N[C@H]1O[C@@H](C)[C@H](OC)[C@@H](O)[C@H]1OC)C4=O	0.008 to 0.016 µg/mL

Turning to the following compound.
Prompt: Enter MIC (test system MRSA 43300) for `COC(=O)c1c(C)cc2c(c1OCc1cccnc1)[C@]1(O)C(=O)c3cc4c(c(O)c3C(=O)[C@]1(OC)[C@H](O)C2)C(=O)C=C(N[C@H]1O[C@@H](C)[C@H](OC)[C@@H](O)[C@H]1OC)C4=O.Cl`
Response: 0.12 to 0.25 µg/mL

The origin of these recorded values is patent US8754054B2.
